assay: growth inhibition, MDA-MB-436, cell-based, BGB or cisplatin combos, synergistic combos for chromothripsis tumors (AID 1671458); conditions: MDA-MB-436 breast carcinoma growth inhibition, drug combinations; measured here: BGB combination; at 0.5 µM; stronger effect = higher value;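 note: cells exposed for 96 hours; 0% = vehicle DMSO and 100% = killing by high DMSO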
quantity: inhibition (%)
Answers are plain numbers, in %.

CC(C)(O)[C@H]1CC[C@@](C)(C2[C@@H](O)C[C@@]3(C)[C@@H]4C[C@H](O)C5C(C)(C)[C@@H](O)CCC56CC46CC[C@]23C)O1 (stereo partly drawn) :: -4.92
CO[C@H]1/C=C/O[C@@]2(C)Oc3c(C)c(O)c4c(O)c(c5c(c4c3C2=O)=NC2(CCN(CC(C)C)CC2)N=5)NC(=O)/C(C)=C\C=C\[C@H](C)[C@H](O)[C@@H](C)[C@@H](O)[C@@H](C)[C@H](OC(C)=O)[C@@H]1C :: 1.73
C[n+]1ccc(-c2c3nc(c(-c4cc[n+](C)cc4)c4ccc([nH]4)c(-c4cc[n+](C)cc4)c4nc(c(-c5cc[n+](C)cc5)c5ccc2[nH]5)C=C4)C=C3)cc1 :: -10.7
CN(C)C(=S)NN=C(c1ccccn1)c1ccccn1 :: 73.4
Cc1cc(C)cc(C(=O)NOCCCCCC(=O)NO)c1 :: -12.2
CC1OC(n2cc(F)c(=O)[nH]c2=O)C(O)C1O (stereo not drawn) :: -38.6

Respectfully, I request inhibition for each entry included below.
1. O=C(CCSc1nc2ccccc2c(=O)[nH]1)NC1CCC(c2nnc(-c3ccccc3)o2)CC1 (stereo not drawn)
2. O=C(CCCCCCC(=O)Nc1ccc(I)cc1)NO

1: -2.01; 2: -27.7
